Origin of values: the supplement of paper PMC9170038

Record form. Attribute: apparent KD of K4 kissing-loop reporter. Fill in for each entry.
# Tested on: K4 kissing-loop RNA reporter;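 also: bound reporter read as fluorescence of individual clusters on recovered sequencing chips by microscopy, with normalized cluster intensities fitted with a binding model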
# method: apparent KD of K4 kissing-loop reporter; higher = weaker reporter binding
# test_conditions: Eterna round: R107; input ligand: arginine 13.2 mM
Kindly provide the numeric value in nM only, without the unit symbol.

Task item: Which apparent KD of K4 kissing-loop reporter reading was recorded for the sequence AGUGAUGUAUGGCGGUGUGUCACUUAAAAUCAGGAUAUAUAAACAAAUAGAAGGGAUGGCGGAGUGAUGUUCCGCCGGCCGCCAU [FMN A Exl V2] ?
Reply: 147

Task item: Repeat with AAAGUAUACUGAAGGAGCGAGUAGUGGAAACAUAAACUCAUUGCGAGUGAUGUUCGCAGUACUCAGGUAGGUCGCGGUAAUCGUA [Exclusion Arginine B Gf 12]
Reply: 498

Task item: Proceed to UUUCGGUUCUGAGGAUAUUCGGACAAAUAUAGUGAUGUUGUAUAAGGAGGAGGGUGUUGGGAGUGAGGAGAAGGCAGAAGAGGAU [ExFMNB.S]
Reply: 707

Task item: Would you kindly repeat that for UCAUGAAAGACGGCCGCCACUGAUGCUGGAGUGAUGUUUCGGACAUAGUAGAGUGAUGUUCUGCGCAGGACCGGGUCGUCAUGAA [KL-SSTryp-B10 #double Kiss] ?
Reply: 64.6

Task item: What about this sequence? AGGAUCCGUCGACAAAAGUCGACAUAAACCGAGGAUAUGACGAAAGUCAGAAGGUGGUCAUAAGACCAGUGAUGUUGGUGGAUCC [FmnA 14 #SwitchBubble #K4Late]
Reply: 282

Task item: Would you kindly repeat that for GCUAUGGUAGGAAGGAGCGCUUACUCGGUCAUAAGAGUGAUGUUCGAGACCGAGUAUUUAUAGCAGGUAGGUCGCCUACUAUAGC [Arginine B K4 6] ?
Reply: 124
